Target: HLA-A*02:01
Test: IEDB peptide-MHC binding, purified MHC/direct/fluorescence; filed as Kd, often an IC50 or EC50 that approximates it; bounds were set here for any values at or beyond the usual limits of such assays
Settings: source organism: Influenza A virus (A/Hong Kong/507/97(H5N1))
MEASUREMENT_LABEL: Kd

QUERY_SEQUENCE: KSCLPACVY
VALUE_OBSERVED: ≥ 20 µM

###

Biological target: HLA-B*40:02
Experiment: IEDB peptide-MHC binding, purified MHC/competitive/radioactivity; filed as Kd, often an IC50 or EC50 that approximates it; bounds were set here for any values at or beyond the usual limits of such assays
Details: source organism: SARS coronavirus Tor2
Kd reference

QUERY_SEQUENCE: IEYSDFATSA
Kd [µM]: 0.147
--
QUERY_SEQUENCE: EEILGTVSW
Kd [µM]: 0.378
--
QUERY_SEQUENCE: IDYRHYSASF
Kd [µM]: 2.67
--
QUERY_SEQUENCE: PEANMDQESF
Kd [µM]: 10.1
--
QUERY_SEQUENCE: EEAARCMRSL
Kd [µM]: 0.184
--
QUERY_SEQUENCE: HEFVDEFYA
Kd [µM]: 0.055
--
QUERY_SEQUENCE: YEAMYTPHT
Kd [µM]: 0.242
--
QUERY_SEQUENCE: DEWSVATFYL
Kd [µM]: 0.119
--
QUERY_SEQUENCE: SEFDRDAAM
Kd [µM]: 1.01

###

Molecular target: HLA-B*15:01
Assay: IEDB peptide-MHC binding, purified MHC/direct/fluorescence; filed as Kd, often an IC50 or EC50 that approximates it; bounds were set here for any values at or beyond the usual limits of such assays
Settings: source organism: Salmonella enterica subsp. enterica serovar Typhimurium str. LT2
pKd: −log10 of the molar value.

QUERY_SEQUENCE: YLRNAGAAM
pKd: 7.51

###

Biological target: HLA-B*15:01
Assay: IEDB peptide-MHC binding, purified MHC/competitive/fluorescence; filed as Kd, often an IC50 or EC50 that approximates it; bounds were set here for any values at or beyond the usual limits of such assays
Settings: source organism: Escherichia coli O157:H7 str. Sakai
pKd: −log10 of the molar value.

QUERY_SEQUENCE: TPTHLSLAI
pKd: ≤ 4.70

###

Biological target: HLA-B*15:01
Assay: IEDB peptide-MHC binding, purified MHC/competitive/radioactivity; filed as Kd, often an IC50 or EC50 that approximates it; bounds were set here for any values at or beyond the usual limits of such assays
Conditions: source organism: Vaccinia virus WR
Values of Kd strictly less than 20 nM map to 1 (yes), and values of at least 20 nM map to 0 (no).

QUERY_SEQUENCE: GVFYRPLHF
CATEGORY_LABEL: 1 (yes)
--
QUERY_SEQUENCE: LLCKLSCAV
CATEGORY_LABEL: 0 (no)
--
QUERY_SEQUENCE: ISTKLSCHY
CATEGORY_LABEL: 1 (yes)
--
QUERY_SEQUENCE: KMTRVFNKF
CATEGORY_LABEL: 0 (no)
--
QUERY_SEQUENCE: GLYCYFTHL
CATEGORY_LABEL: 1 (yes)
--
QUERY_SEQUENCE: LIRPKILSM
CATEGORY_LABEL: 1 (yes)
--
QUERY_SEQUENCE: YLFNAIETM
CATEGORY_LABEL: 1 (yes)
--
QUERY_SEQUENCE: LLKICIKYF
CATEGORY_LABEL: 0 (no)

// provenance: the Immune Epitope Database (IEDB)
